Data provenance is ChEMBL document CHEMBL3612066.

- Test system: Mycobacterium tuberculosis
- Test Protocol: Antitubercular activity against fluorescent reporter strain of Mycobacterium tuberculosis H37Rv after 5 days by fluorescence assay
- Format: functional, organism-based
- Condition Label: 120 h
MIC listing for selected compounds.
Reply with a number, then the unit it belongs to.

Consider the reported MIC for these compounds:
Cc1ccn2nc(C)c(C(=O)NCc3ccc(N4CCC(c5ccc(OC(F)(F)F)cc5)CC4)cc3)c2c1 :: 11 nM
Cc1ccn2nc(C)c(C(=O)NCc3ccc(N4CCN(c5ccc(F)cc5)CC4)cc3)c2c1 :: 6.3 nM
CO[C@H]1/C=C/O[C@@]2(C)Oc3c(C)c(O)c4c(O)c(c(/C=N/N5CCN(C)CC5)c(O)c4c3C2=O)NC(=O)/C(C)=C\C=C\[C@H](C)[C@H](O)[C@@H](C)[C@@H](O)[C@@H](C)[C@H](OC(C)=O)[C@@H]1C [RIFAMPIN] :: 6.5 nM
COc1ccn2nc(C)c(C(=O)NCc3ccc(N4CCC(c5ccc(OC(F)(F)F)cc5)CC4)cc3)c2c1 :: 5.6 nM

--- query ---
Req: Which MIC is listed for `CCc1nn2ccc(Cl)cc2c1C(=O)NCc1ccc(N2CCC(c3ccc(OC(F)(F)F)cc3)CC2)cc1` ?
Resp: 129 nM

---

- Tested on: Mycobacterium tuberculosis
- Test Protocol: Antitubercular activity against Mycobacterium tuberculosis H37Ra after 7 days by microplate alamar blue assay
- Type: functional
- Condition Label: 168 h
log10 MIC listing for selected compounds.
Record value = log10 of MIC given in µM.

Consider the reported log10 MIC for these compounds:
Cc1ccn2nc(C)c(C(=O)NCc3ccc(C(F)(F)F)cc3)c2c1 :: -0.54
Cc1nn2ccc(C(C)C)cc2c1C(=O)NCc1ccc(N2CCC(c3ccc(OC(F)(F)F)cc3)CC2)cc1 :: 0.26
Cc1ccn2nc(C)c(C(=O)NCc3ccc(N4CCC(c5ccc(OC(F)(F)F)cc5)CC4)cc3)c2c1 :: -2.24
Cc1ccn2nc(C)c(C(=O)NCc3ccc(N4CCN(c5ccc(F)cc5)CC4)cc3)c2c1 :: -2.18
O=C(NCc1ccc(N2CCC(c3ccc(OC(F)(F)F)cc3)CC2)cc1)c1cnn2ccc(Cl)cc12 :: 1.28

Req: Give log10 MIC (Mycobacterium tuberculosis) of the following compound: `CCc1nc2ccc(Cl)cn2c1C(=O)NCc1ccc(N2CCC(c3ccc(OC(F)(F)F)cc3)CC2)cc1`
Resp: -2.27

Req: Give log10 MIC (Mycobacterium tuberculosis) of the following compound: `CCc1ccn2nc(C)c(C(=O)NCc3ccc(N4CCC(c5ccc(OC(F)(F)F)cc5)CC4)cc3)c2c1`
Resp: -1.73

Req: Give log10 MIC (Mycobacterium tuberculosis) of the following compound: `Cc1ccn2nc(C)c(C(=O)NCc3ccc(-c4ccc(OC(F)(F)F)cc4)cc3)c2c1`
Resp: -2.17

Req: Give log10 MIC (Mycobacterium tuberculosis) of the following compound: `O=C(NCc1ccc(N2CCC(c3ccc(OC(F)(F)F)cc3)CC2)cc1)c1c(C2CC2)nn2ccc(Cl)cc12`
Resp: -0.75

Req: Give log10 MIC (Mycobacterium tuberculosis) of the following compound: `Cc1ccn2nc(C)c(C(=O)NCc3ccc(N4CCC(C(F)(F)F)CC4)cc3)c2c1`
Resp: -2.64

Req: Give log10 MIC (Mycobacterium tuberculosis) of the following compound: `Cc1nn2ccccc2c1C(=O)NCc1ccc(N2CCC(c3ccc(OC(F)(F)F)cc3)CC2)cc1`
Resp: -0.23

Req: Give log10 MIC (Mycobacterium tuberculosis) of the following compound: `Cc1ccn2nc(C)c(C(=O)NCc3ccc(N(C)C)cc3)c2c1`
Resp: -0.51

Req: Give log10 MIC (Mycobacterium tuberculosis) of the following compound: `Cc1nn2ccc(Cl)cc2c1C(=O)NCc1ccc(N2CCC(c3ccc(OC(F)(F)F)cc3)CC2)cc1`
Resp: -1.74

Req: Give log10 MIC (Mycobacterium tuberculosis) of the following compound: `COc1ccn2nc(C)c(C(=O)NCc3ccc(N4CCC(c5ccc(OC(F)(F)F)cc5)CC4)cc3)c2c1`
Resp: -2.25

Req: Give log10 MIC (Mycobacterium tuberculosis) of the following compound: `Cc1nn2ccc(C(F)(F)F)cc2c1C(=O)NCc1ccc(N2CCC(c3ccc(OC(F)(F)F)cc3)CC2)cc1`
Resp: 0.24

Req: Give log10 MIC (Mycobacterium tuberculosis) of the following compound: `Cc1nn2c(C)cccc2c1C(=O)NCc1ccc(N2CCC(c3ccc(OC(F)(F)F)cc3)CC2)cc1`
Resp: 0.76

Req: Give log10 MIC (Mycobacterium tuberculosis) of the following compound: `CCc1nn2ccc(Cl)cc2c1C(=O)NCc1ccc(N2CCC(c3ccc(OC(F)(F)F)cc3)CC2)cc1`
Resp: -1.27

Req: Give log10 MIC (Mycobacterium tuberculosis) of the following compound: `NNC(=O)c1ccncc1`
Resp: -0.14

Req: Give log10 MIC (Mycobacterium tuberculosis) of the following compound: `CO[C@H]1/C=C/O[C@@]2(C)Oc3c(C)c(O)c4c(O)c(c(/C=N/N5CCN(C)CC5)c(O)c4c3C2=O)NC(=O)/C(C)=C\C=C\[C@H](C)[C@H](O)[C@@H](C)[C@@H](O)[C@@H](C)[C@H](OC(C)=O)[C@@H]1C`
Resp: -2.44

Req: Give log10 MIC (Mycobacterium tuberculosis) of the following compound: `Cc1ccc2c(C(=O)NCc3ccc(N4CCC(c5ccc(OC(F)(F)F)cc5)CC4)cc3)c(C)nn2c1`
Resp: -0.24

Req: Give log10 MIC (Mycobacterium tuberculosis) of the following compound: `Cc1ccn2nc(C)c(C(=O)NCc3ccc(N4CCCCC4)cc3)c2c1`
Resp: -1.56
